- target.under.test: APOL1 G2 (Homo sapiens, UniProt O14791, DEL388-389)
- Construct: expressed in transfected cells; host or cells: HEK293 T-REx clonal lines: HEK T-REx/GCaMP6f/APOL1 G2 K6.3 in A1, HEK293/T-REx APOL1 G2/clone #2 in A2
- Sequence (O14791 with tags, fused parts or gaps DEL388-389): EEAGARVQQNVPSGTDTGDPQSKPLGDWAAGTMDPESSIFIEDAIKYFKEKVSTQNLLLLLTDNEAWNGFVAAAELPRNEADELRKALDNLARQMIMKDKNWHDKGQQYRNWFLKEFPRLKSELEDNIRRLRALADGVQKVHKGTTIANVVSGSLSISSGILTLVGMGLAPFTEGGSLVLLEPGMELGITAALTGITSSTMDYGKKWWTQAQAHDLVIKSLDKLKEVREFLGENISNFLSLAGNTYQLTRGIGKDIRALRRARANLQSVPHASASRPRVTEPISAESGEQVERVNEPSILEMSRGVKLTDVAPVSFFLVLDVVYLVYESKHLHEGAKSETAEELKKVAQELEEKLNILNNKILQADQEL
- protocol.text: APOL1 calcium transport inhibition assay (GCaMP6f calcium influx, FLIPR) in HEK T-REx/GCaMP6f/APOL1 G2 K6.3 cells
- Type: cell-based
- measurement.setup: inhibition of APOL1-mediated calcium influx; geometric mean of at least 2 assay runs, † = single assay run (technical duplicate)
measurement.label: AC50 (µM)
Write the value in µM as a bare number.

The cases that follow already have their AC50 on record.
compound	AC50 / µM
C[C@@H]1C[C@H](COc2ccc(S(=O)(=O)C3CNC3)cc2)CN1CCc1cc(Cl)cc(C#N)c1	0.878
C[C@@H]1CN(CCc2cc(Br)cc(C#N)c2)C[C@H]1COc1ccc(S(C)(=O)=O)cc1	0.108
CN(c1ccc(OC[C@@H](O)CNCCc2cc(Cl)cc(Cl)c2)cc1)S(C)(=O)=O	0.472
C[C@@H]1CN(CCc2cc(F)cc(C#N)c2)C[C@H]1COc1ccc(S(C)(=O)=O)cc1	0.236
C[C@@H]1CN(CC(O)c2cccc(C#N)c2)C[C@H]1COc1ccc(S(C)(=O)=O)cc1 (single isomer, unassigned) [Compound 128]	0.349

Enquiry: Return reported AC50; argument: C[C@@H]1CN(CCc2cccc(Cl)c2)C[C@H]1COc1ccc(S(=O)(=O)CCS(C)(=O)=O)cc1
Return: 0.0919

----------
Listing of entries alongside the reported AC50.
- target.under.test: APOL1 G2 (Homo sapiens, UniProt O14791, DEL388-389)
- Construct: expressed in transfected cells; host or cells: HEK293 T-REx clonal lines: HEK T-REx/GCaMP6f/APOL1 G2 K6.3 in A1, HEK293/T-REx APOL1 G2/clone #2 in A2
- Sequence (O14791 with tags, fused parts or gaps DEL388-389): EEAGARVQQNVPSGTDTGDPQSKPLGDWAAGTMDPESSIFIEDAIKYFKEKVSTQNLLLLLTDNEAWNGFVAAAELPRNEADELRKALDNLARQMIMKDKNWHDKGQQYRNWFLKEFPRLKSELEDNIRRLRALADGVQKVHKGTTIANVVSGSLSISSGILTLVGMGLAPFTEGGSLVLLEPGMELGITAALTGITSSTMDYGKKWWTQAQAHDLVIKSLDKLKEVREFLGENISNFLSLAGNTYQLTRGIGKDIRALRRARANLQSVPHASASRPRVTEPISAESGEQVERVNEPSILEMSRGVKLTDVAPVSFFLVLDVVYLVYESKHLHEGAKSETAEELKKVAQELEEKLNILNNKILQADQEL
- protocol.text: APOL1 calcium transport inhibition assay (GCaMP6f calcium influx, FLIPR) in HEK T-REx/GCaMP6f/APOL1 G2 K6.3 cells
- Format: cell-based
- measurement.setup: inhibition of APOL1-mediated calcium influx; geometric mean of at least 2 assay runs, † = single assay run (technical duplicate)
Please respond with the number in nM and leave the unit unwritten.

Here are 4 compounds together with their reported answers.
compound	target.under.test	u	AC50
CN(c1ccc(OCC2CCCN(CCc3cccc(Cl)c3)C2)cc1)S(C)(=O)=O (single isomer, unassigned) [Compound 8]	APOL1 G2 (Homo sapiens, UniProt O14791, DEL388-389)	nM	266
Cc1c(C#N)cc(Cl)cc1CCN1C[C@@H](COc2ccc(S(C)(=O)=O)cc2)[C@H](C)C1	APOL1 G2 (Homo sapiens, UniProt O14791, DEL388-389)	nM	423
CN(c1ccc(O[C@H]2C[C@H](NCCc3cccc(Cl)c3)C2)cc1)S(C)(=O)=O	APOL1 G2 (Homo sapiens, UniProt O14791, DEL388-389)	nM	1920
C[C@@H]1CN(CCc2cccc(Cl)c2)C[C@H]1COc1ccc(S(=O)(=O)CCO)cc1 (single isomer, unassigned)	APOL1 G2 (Homo sapiens, UniProt O14791, DEL388-389)	nM	907

We now examine a further compound.
Enquiry: Look at this compound and give its reported AC50. CC(C)(CO)S(=O)(=O)c1ccc(OC[C@@H]2CN(CCc3cc(Cl)cc(C#N)c3)CCN2)cc1
Return: 149

----------
- target.under.test: APOL1 G2 (Homo sapiens, UniProt O14791, DEL388-389)
- Construct: expressed in transfected cells; host or cells: HEK293 T-REx clonal lines: HEK T-REx/GCaMP6f/APOL1 G2 K6.3 in A1, HEK293/T-REx APOL1 G2/clone #2 in A2
- protocol.text: APOL1 calcium transport inhibition assay (GCaMP6f calcium influx, FLIPR) in HEK T-REx/GCaMP6f/APOL1 G2 K6.3 cells
- Format: cell-based
- measurement.setup: inhibition of APOL1-mediated calcium influx; geometric mean of at least 2 assay runs, † = single assay run (technical duplicate)
measurement.label: log10 of AC50 (log10 of the value in nM)
# values: log10(AC50), units nM

compound	log10 of AC50
CN(c1ccc(NCC(O)CNCCc2cccc(Cl)c2)cc1)S(C)(=O)=O (centres unmarked) [Compound 105]	2.98

Enquiry: Endpoint output: log10 of AC50 of COc1ccccc1CCNC[C@H](O)COc1ccc(N(C)S(C)(=O)=O)cc1 . Value?
Return: 3.59

Enquiry: Which value of log10 of AC50 has been reported for CN(c1ccc(OCC2CCCN(CCc3cccc(Cl)c3)C2)cc1)S(C)(=O)=O (single isomer, unassigned) [Compound 9] in the records?
Return: 2.18

----------
Let's look at some compounds and their measured pEC50.
- target.under.test: APOL1 G2 (Homo sapiens, UniProt O14791, DEL388-389)
- protocol.text: Rescue of HEK293 cell death caused by overexpression of APOL1 (CellTiter-Glo luminescence), HEK293/T-REx APOL1 G2/clone #2
- measurement.setup: reversal of cell death caused by overexpression of APOL1; geometric mean of at least 2 assay runs, † = single assay run (technical duplicate)
The scale used: pEC50 is minus the common logarithm of the concentration in molar units.

compound	pEC50
CN(c1ccc(OCC(C)(O)CNCCc2cccc(Cl)c2)cc1)S(C)(=O)=O (single isomer, unassigned) [Compound 104]	5.73
C[C@@H]1CN(CC(O)c2cc(C#N)cc(C#N)c2)C[C@H]1COc1ccc(S(C)(=O)=O)cc1 (single isomer, unassigned) [Compound 131]	6.34
CS(=O)(=O)c1ccc(OC[C@H]2CCCN(CCc3cccc(Cl)c3)C2)cc1 [Compound 16]	6.48
O=S(=O)(c1ccc(OC[C@@H]2CN(CCc3cccc(Cl)c3)CCN2)cc1)C1CNC1 [Compound 185]	6.62
CC(CN1C[C@@H](COc2ccc(S(C)(=O)=O)cc2)[C@H](C)C1)c1cc(Cl)cc(C#N)c1 (single isomer, unassigned) [Compound 147]	6.21

Enquiry: Fill in: pEC50 of C[C@@H]1C[C@H](COc2ccc(S(C)(=O)=O)cc2)CN1CCc1cccc(Cl)c1 [Compound 153] is ___
Return: 7.56

Enquiry: Returns the measured pEC50 for the input compound. Input: C[C@@H]1CN(CC(O)c2cc(Cl)cc(C#N)c2)C[C@H]1COc1ccc(S(C)(=O)=O)cc1 (single isomer, unassigned) [Compound 121]
Return: 7.00

Enquiry: Returns the measured pEC50 for the input compound. Input: CS(=O)(=O)c1ccc(OC[C@H]2CCCN(CC(O)c3cccc(Cl)c3)C2)cc1 (single isomer, unassigned) [Compound 19]
Return: 6.43

Enquiry: If you can, please state the reported pEC50 value of CS(=O)(=O)CCCS(=O)(=O)c1ccc(OC[C@@H]2CN(CCc3cccc(Cl)c3)CCN2)cc1 [Compound 184] .
Return: 6.21

----------
- target.under.test: APOL1 G2 (Homo sapiens, UniProt O14791, DEL388-389)
- Construct: expressed in transfected cells; host or cells: HEK293 T-REx clonal lines: HEK T-REx/GCaMP6f/APOL1 G2 K6.3 in A1, HEK293/T-REx APOL1 G2/clone #2 in A2
- Sequence (O14791 with tags, fused parts or gaps DEL388-389): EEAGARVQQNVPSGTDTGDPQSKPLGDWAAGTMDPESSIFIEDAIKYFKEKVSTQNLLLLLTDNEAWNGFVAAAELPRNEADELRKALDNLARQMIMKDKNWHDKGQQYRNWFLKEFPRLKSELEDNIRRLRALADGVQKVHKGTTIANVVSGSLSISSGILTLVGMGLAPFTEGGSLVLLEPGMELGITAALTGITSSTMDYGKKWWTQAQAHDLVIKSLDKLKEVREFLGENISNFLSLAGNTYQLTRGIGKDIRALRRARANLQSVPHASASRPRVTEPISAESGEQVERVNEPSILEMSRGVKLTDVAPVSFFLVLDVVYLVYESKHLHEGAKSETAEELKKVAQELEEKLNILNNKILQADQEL
- protocol.text: APOL1 calcium transport inhibition assay (GCaMP6f calcium influx, FLIPR) in HEK T-REx/GCaMP6f/APOL1 G2 K6.3 cells
- Format: cell-based
- measurement.setup: inhibition of APOL1-mediated calcium influx; geometric mean of at least 2 assay runs, † = single assay run (technical duplicate)
// boundary case: AC50 equal to 200 nM maps to not satisfied; strictly smaller maps to satisfied

compound	assigned.label
CC1(C)CC(COc2ccc(S(C)(=O)=O)cc2)CN1CCc1cccc(Cl)c1 (single isomer, unassigned) [Compound 43]	not satisfied
CCc1ccccc1CCNC[C@H](O)COc1ccc(N(C)S(C)(=O)=O)cc1	not satisfied
CS(=O)(=O)c1ccc(OCC2(O)CCCN(CCc3cccc(Cl)c3)C2)cc1 (single isomer, unassigned) [Compound 5]	not satisfied
CC(CN1C[C@@H](COc2ccc(S(C)(=O)=O)cc2)C[C@H]1C)c1cc(Cl)cc(C#N)c1 (single isomer, unassigned) [Compound 142]	not satisfied
CS(=O)(=O)c1ccc(OCC2CCCCN(CCc3cccc(Cl)c3)C2)cc1 (single isomer, unassigned) [Compound 2]	not satisfied

Enquiry: Strictly below 200 nM in AC50? CN=S(C)(=O)c1ccc(OC[C@@H]2CN(CCc3cccc(C#N)c3)C[C@H]2C)cc1 (stereo partly shown) [Compound 169]
Return: satisfied
